composite z-score values for the compounds below.
tested on: Chordin-like protein 2 (CHRDL2); test: compounds binding chordin-like 2 – biochemical, small-molecule microarray, 635 nm fluorescence, primary screen (AID 1126); conditions: fluorescence 635 nm, higher = more signal;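 note: printed compound slides probed with Chrdl2 protein at 4 µg/mL for 1 h at 4 C; score merges 667 nm emission intensity with signal to noise over three replicate slides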

>  <COMPOUND>
[N-]=[N+]=Nc1ccccc1C[C@]1(C(=O)NCc2ccccc2)N=C(c2ccc(OCCCO)cc2)O[C@H]1c1ccccc1N=[N+]=[N-]

>  <TARGET OF ASSAY>
Chordin-like protein 2 (CHRDL2)

>  <composite z-score>
-0.124

$$$$
>  <COMPOUND>
C=CC[C@]12N=C(c3ccc(OCCCO)cc3)O[C@H]1c1ccccc1N(CCS(=O)(=O)c1ccccc1)C2=O

>  <TARGET OF ASSAY>
Chordin-like protein 2 (CHRDL2)

>  <composite z-score>
0.873

$$$$
>  <COMPOUND>
CC(c1ccccc1)C(O)C1C=CC2C(=O)N(C)C(=O)C2N1NC(=O)OC(C)(C)C (stereo not drawn)

>  <TARGET OF ASSAY>
Chordin-like protein 2 (CHRDL2)

>  <composite z-score>
-0.338

$$$$
>  <COMPOUND>
COc1ccc([Si](C)(C)[C@H]2[C@H](CC(=O)N3CCC[C@H]3CO)O[C@@]3(C(=O)N(Cc4cccc(N5CCOC5=O)c4)c4ccccc43)[C@@H]2C)cc1

>  <TARGET OF ASSAY>
Chordin-like protein 2 (CHRDL2)

>  <composite z-score>
1.36

$$$$
>  <COMPOUND>
COc1cc(CO)cc(I)c1O[C@H]1C=C(C(=O)NCCO)C[C@@H](NC[C@@H]2CCCO2)[C@@H]1O

>  <TARGET OF ASSAY>
Chordin-like protein 2 (CHRDL2)

>  <composite z-score>
0.0292

$$$$
>  <COMPOUND>
O=C1NC(=O)C2C1C=CC(C(O)c1ccc(-c3ccccc3)s1)N2Nc1ccc(Cl)cc1Cl (stereo not drawn)

>  <TARGET OF ASSAY>
Chordin-like protein 2 (CHRDL2)

>  <composite z-score>
-0.717

$$$$
>  <COMPOUND>
OCC1C=C(/C=C/c2ccccc2)CN1Cc1ccccc1Br (stereo not drawn)

>  <TARGET OF ASSAY>
Chordin-like protein 2 (CHRDL2)

>  <composite z-score>
0.402

$$$$
>  <COMPOUND>
O=C1O[C@@H](c2ccccc2)[C@@H](c2ccccc2)N2[C@@H](c3ccc(OCCO)cc3)[C@]3(C(=O)Nc4ccc(C#CCCO)cc43)[C@@H](C(=O)NC[C@H](O)c3ccccc3)[C@H]12

>  <TARGET OF ASSAY>
Chordin-like protein 2 (CHRDL2)

>  <composite z-score>
0.891

$$$$
